System: SUDHL5
Assay details: Induction of cytotoxicity (Assay 6), SUDHL5
Details: read-out: Cytotox SUDHL5 IC50 (median); SUDHL5 cells, 5 hours, CellTiter-Glo
Measured quantity: log10 IC50 (log10 of the value in µM)
Reminder: these figures are log10 of reported IC50, in µM before transformation.

Field: example entries. Status: answers known.
>>> measurement("CCc1c2c(nn1C)COCCCCn1c(C(=O)O)c(CCCOc3cccc4ccccc34)c3ccc(Cl)c-2c31 (single isomer, unassigned; enantiomer 2) [Example 21]")
0.57
>>> measurement("CCc1c2c(nn1C)N(CCC1CCOCC1)CCCCCn1c(C(=O)O)c(CCCOc3cccc4cc(F)ccc34)c3ccc(Cl)c-2c31 (single isomer, unassigned; enantiomer 1) [Example 81]")
-0.54
>>> measurement("CCc1nn(C)c2c1-c1c(Cl)ccc3c(CCCOc4cccc5cc(F)ccc45)c(C(=O)O)n(c13)CCCCOC2 (single isomer, unassigned; enantiomer 1) [Example 34]")
-0.28

Provide log10 IC50 values for the following items, in order.
1. CCc1c2c(nn1C)CCCCCCn1c(C(=O)O)c(CCCOc3cccc4ccccc34)c3ccc(Cl)c-2c31 (single isomer, unassigned; enantiomer 1) [Example 52]
2. CCc1nn(C)c2c1-c1c(Cl)ccc3c(CCCOc4cccc5cc(F)ccc45)c(C(=O)O)n(c13)CCCCN(C)C2 (single isomer, unassigned; enantiomer 2) [Example 41]
3. Cc1c2c(nn1C)CN(C)CCCCn1c(C(=O)O)c(CCCOc3cccc4cc(F)ccc34)c3ccc(Cl)c-2c31 (single isomer, unassigned; enantiomer 1) [Example 31]

[-0.49, 0.60, -1.28]

Provide log10 IC50 values for the following items, in order.
1. CCc1nn(C)c2c1-c1c(Cl)ccc3c(CCCOc4cccc5cc(F)ccc45)c(C(=O)O)n(c13)CCCCN(C)C2 (single isomer, unassigned; enantiomer 1) [Example 40]
2. CCc1nn(CCN2CCOCC2)c2c1-c1c(Cl)ccc3c(CCCOc4cccc5ccccc45)c(C(=O)O)n(c13)C/C=C\CN(C)C2 (single isomer, unassigned; enantiomer 2) [Example 44]
3. CCc1c2c(nn1C)CCCCCCn1c(C(=O)O)c(CCCOc3cccc4ccccc34)c3ccc(Cl)c-2c31 (single isomer, unassigned; enantiomer 2) [Example 53]
4. Cc1c2c(nn1C)COCCCCn1c(C(=O)O)c(CCCOc3cccc4cc(F)ccc34)c3ccc(Cl)c-2c31 (single isomer, unassigned; enantiomer 1) [Example 15]

[-0.96, 0.91, 0.40, -0.85]

Provide log10 IC50 values for the following items, in order.
1. Cc1c2c(nn1C)CN(C)CCCCn1c(C(=O)O)c(CCCOc3cccc4ccccc34)c3ccc(Cl)c-2c31 (single isomer, unassigned; enantiomer 2)
2. Cc1c2c(nn1C)OCCCCCn1c(C(=O)O)c(CCCOc3cccc4cc(F)ccc34)c3ccc(Cl)c-2c31 (single isomer, unassigned; enantiomer 2) [Example 85]
3. CCc1c2c(nn1C)COCCCCn1c(C(=O)O)c(CCCOc3cccc4cc(F)ccc34)c3ccc(Cl)c-2c31 (single isomer, unassigned; enantiomer 2) [Example 38]
4. Cc1c2c(nn1C)COCC1CCC1Cn1c(C(=O)O)c(CCCOc3cccc4ccccc34)c3ccc(Cl)c-2c31 (single isomer, unassigned; stereoisomer 2)

[0.84, 1.23, 0.63, 0.36]

Provide log10 IC50 values for the following items, in order.
1. Cc1c2c(nn1C)N(C)CCCCCn1c(C(=O)O)c(CCCOc3cccc4ccccc34)c3ccc(Cl)c-2c31 (single isomer, unassigned) [Example 73]
2. CCc1c2c(nn1C)COCCCCn1c(C(=O)O)c(CCCOc3cccc4ccccc34)c3ccc(Cl)c-2c31 (single isomer, unassigned; enantiomer 1) [Example 20]
3. Cc1c2c(nn1C)COCC1CC1Cn1c(C(=O)O)c(CCCOc3cccc4ccccc34)c3ccc(Cl)c-2c31 (single isomer, unassigned; stereoisomer 2) [Example 66]
4. Cc1c2c(nn1C)CN(CC(F)(F)F)CCCCn1c(C(=O)O)c(CCCOc3cccc4cc(F)ccc34)c3ccc(Cl)c-2c31 (single isomer, unassigned; enantiomer 2) [Example 60]
5. CCc1c2c(nn1C)N(C)CCCCCn1c(C(=O)O)c(CCCOc3cccc4cc(F)ccc34)c3ccc(Cl)c-2c31 (single isomer, unassigned; enantiomer 2) [Example 79]
6. Cc1c2c(nn1CCCN1CCN(C)CC1)COCCCCn1c(C(=O)O)c(CCCOc3cccc4ccccc34)c3ccc(Cl)c-2c31 (single isomer, unassigned; enantiomer 1) [Example 49]

1.15
-0.77
-0.04
1.08
0.34
-0.18

###

Test system: HMC-1-8
Assay details: Antiproliferation assay 7, HMC-1-8
Format: cell-based
Details: 72 h, HMC-1-8 cells, CellTiter-Glo, read-out: Antiproli HMC-1-8 IC50 median
Measured quantity: IC50 (µM)
Numbers only, in µM.

>>> measurement("CCc1c2c(nn1C)N(C)CCCCCn1c(C(=O)O)c(CCCOc3cccc4cc(F)ccc34)c3ccc(Cl)c-2c31 (racemic)")
3.3

Provide IC50 values for the following items, in order.
1. CCc1c2c(nn1C)CN(C)CCCCn1c(C(=O)O)c(CCCOc3cccc4cc(F)ccc34)c3ccc(Cl)c-2c31 (single isomer, unassigned; enantiomer 1)
2. Cc1c2c(nn1C)CN(C)CCCCn1c(C(=O)O)c(CCCOc3cccc4ccccc34)c3ccc(Cl)c-2c31 (racemic) [Example 11]

1: 1.21; 2: 4.19

###

Study target: full length endogenous MCL1 protein (Homo sapiens (Human))
Sequence (Q07820 whole entry): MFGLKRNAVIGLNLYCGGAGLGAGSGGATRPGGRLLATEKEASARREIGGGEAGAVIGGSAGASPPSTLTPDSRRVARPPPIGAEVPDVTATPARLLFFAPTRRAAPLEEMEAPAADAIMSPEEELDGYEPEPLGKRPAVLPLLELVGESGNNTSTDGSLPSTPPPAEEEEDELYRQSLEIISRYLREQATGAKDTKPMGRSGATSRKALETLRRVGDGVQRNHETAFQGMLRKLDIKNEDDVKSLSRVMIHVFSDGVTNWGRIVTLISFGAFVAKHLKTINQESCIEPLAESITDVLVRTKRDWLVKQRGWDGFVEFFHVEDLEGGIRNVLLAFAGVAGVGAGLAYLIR
Assay details: PIxEL: protein-protein interaction in permeabilized cells by ELISA (Assay 5)
Assay type: cell-based
Details: permeabilized RKO cells, biotin-BIM BH3 peptide, printed in uM, read-out: PIxEL IC50 (median)
Measured quantity: IC50

Item Cc1c2c(nn1C)N(C)CCCCCn1c(C(=O)O)c(CCCOc3cccc4ccccc34)c3ccc(Cl)c-2c31 (racemic) has what recorded IC50?
> 30 µM

###

System: HMC-1-8
Assay details: Antiproliferation assay 7, HMC-1-8
Format: cell-based
Details: 72 h, HMC-1-8 cells, CellTiter-Glo, read-out: Antiproli HMC-1-8 IC50 median
Measured quantity: log10(IC50) (log10 of the value in µM)
Reminder: these figures are log10 of reported IC50, in µM before transformation.

>>> measurement("CCc1c2c(nn1C)CN(C)CCCCn1c(C(=O)O)c(CCCOc3cccc4ccccc34)c3ccc(Cl)c-2c31 (single isomer, unassigned; enantiomer 1)")
0.71
>>> measurement("Cc1c2c(nn1C)CN(CC(F)(F)F)CCCCn1c(C(=O)O)c(CCCOc3cccc4cc(F)ccc34)c3ccc(Cl)c-2c31 (racemic)")
0.24
>>> measurement("Cc1c2c(nn1C)OCCCCCn1c(C(=O)O)c(CCCOc3cccc4cc(F)ccc34)c3ccc(Cl)c-2c31 (single isomer, unassigned; enantiomer 1)")
1.08
>>> measurement("CCc1c2c(nn1C)COCCCCn1c(C(=O)O)c(CCCOc3cccc4cc(F)ccc34)c3ccc(Cl)c-2c31 (single isomer, unassigned; enantiomer 1)")
0.05

// below: log10(IC50) requested for another compound
Item CCc1c2c(nn1C)N(CCC1CCOCC1)CCCCCn1c(C(=O)O)c(CCCOc3cccc4cc(F)ccc34)c3ccc(Cl)c-2c31 (racemic) [Example 80] has what recorded log10(IC50)?
0.60

###

Test system: SUDHL10
Assay details: Induction of cytotoxicity (Assay 6), SUDHL10
Details: read-out: Cytotox SUDHL10 IC50 (median); SUDHL10 cells, 5 hours, CellTiter-Glo
# if measured IC50 < 10 µM: Condition met  # else: Condition not met

Reference set (2 entries):
>>> category_label("Cc1c2c(nn1C)COCC1CCC1Cn1c(C(=O)O)c(CCCOc3cccc4ccccc34)c3ccc(Cl)c-2c31 (single isomer, unassigned; stereoisomer 2) [Example 64]")
"Condition met"
>>> category_label("Cc1c2c(nn1C)CN(C)CCCCn1c(C(=O)O)c(CCCOc3cccc4ccccc34)c3ccc(Cl)c-2c31 (single isomer, unassigned; enantiomer 2)")
"Condition not met"

Lab note: confirm whether the reported IC50 for this molecule is below 10 µM, equality not counting. molecule: Cc1c2c(nn1C)COCCCCn1c(C(=O)O)c(CCCOc3cccc4ccccc34)c3ccc(Cl)c-2c31 (single isomer, unassigned; enantiomer 2) [Example 27]
Condition not met

Moving on to CCc1nn(CCN2CCOCC2)c2c1-c1c(Cl)ccc3c(CCCOc4cccc5ccccc45)c(C(=O)O)n(c13)C/C=C\CN(C)C2 (single isomer, unassigned; enantiomer 2) [Example 44]
Condition not met

Moving on to CCc1c2c(nn1C)CN(C)CCCCn1c(C(=O)O)c(CCCOc3cccc4cc(F)ccc34)c3ccc(Cl)c-2c31 (single isomer, unassigned; enantiomer 2) [Example 7]
Condition met

###

I'd be grateful if you could share measured IC50 for these entries.
Tested on: SUDHL10
Assay details: Induction of cytotoxicity (Assay 6), SUDHL10
Details: read-out: Cytotox SUDHL10 IC50 (median); SUDHL10 cells, 5 hours, CellTiter-Glo
Give bare numbers, in µM.

Field: example entries. Status: answers known.
>>> measurement("CCc1nn(CCN2CCOCC2)c2c1-c1c(Cl)ccc3c(CCCOc4cccc5ccccc45)c(C(=O)O)n(c13)C/C=C\\CN(C)C2 (single isomer, unassigned; enantiomer 1) [Example 43]")
1.2
>>> measurement("Cc1c2c(nn1C)COCC1CC1Cn1c(C(=O)O)c(CCCOc3cccc4ccccc34)c3ccc(Cl)c-2c31 (single isomer, unassigned; stereoisomer 2) [Example 66]")
1.4
>>> measurement("CCc1nn(CCN2CCOCC2)c2c1-c1c(Cl)ccc3c(CCCOc4cccc5ccccc45)c(C(=O)O)n(c13)CCCCN(C)C2 (single isomer, unassigned; enantiomer 1) [Example 46]")
0.3
>>> measurement("Cc1c2c(nn1C)N(C)CCCCCn1c(C(=O)O)c(CCCOc3cccc4ccccc34)c3ccc(Cl)c-2c31 (single isomer, unassigned) [Example 72]")
1.6

// below: IC50 requested for another compound
Item Cc1c2c(nn1C)COCC(F)(F)CCn1c(C(=O)O)c(CCCOc3cccc4ccccc34)c3ccc(Cl)c-2c31 (single isomer, unassigned; enantiomer 1) [Example 56] has what recorded IC50?
1.6
